- target_or_test_system: Cytochrome P450 2C9 (Homo sapiens)
- measurement_description: Cytochrome P450 Family 2 Subfamily C Member 9 (CYP2C9) small molecule antagonists: luciferase reporter qHTS assay (AID 1671198); further: nearly all actives have a fitted effect of over 50% in size; further: potency means the concentration at half of the fitted maximal effect
- test_conditions: P450-Glo CYP2C9 enzyme assay, luciferin luminescence; series mostly up to 115 µM
Records with an inconclusive call do not appear. The source made the active and inactive calls. The call rests on the fitted dose curve; in most records, active means well fitted inhibition curve with a large enough effect in the repeat runs; inconclusive means weak or mixed curves; inactive means no such curve, though single readings can be large or run the other way.
metric: Potency

The cases that follow already have their Potency on record.
compound	Potency
O=c1c(O)c(-c2ccc(O)cc2O)oc2cc(O)cc(O)c12	21.1 µM (active)
Cc1cc(-c2ccc(N=Nc3cc(S(=O)(=O)O)c4ccccc4c3N)c(C)c2)ccc1N=Nc1cc(S(=O)(=O)O)c2ccccc2c1N	inactive
CCCCOC(=O)CO	inactive
C[Si](Cl)(c1ccccc1)c1ccccc1	4.37 µM (active)
CN(C)Cc1ccccc1O	inactive
CC(=O)Oc1cc2c(s1)CCN(C(C(=O)C1CC1)c1ccccc1F)C2 (centres undefined)	13.8 µM (active)
O=[N+]([O-])c1cccc(C(F)(F)F)c1	inactive
CCO[Si](OCC)(OCC)OCC	inactive
C=Cc1cccc(C)c1	inactive
Nc1nc2c(ncn2COCCO)c(=O)[nH]1	inactive

Query string: Which Potency reading was recorded for the compound "CC/C=C\CCCCCO" ?
Result string: inactive

Query string: Recorded Potency of "c1ccsc1" , please.
Result string: inactive

Query string: Look at this compound and give its reported Potency. "CCCC1CCC(=O)CC1"
Result string: inactive

Query string: Quick one: Potency of "c1cnccn1" ?
Result string: inactive

###

- measurement_description: qHTS assay to identify aromatase inhibitors - cell viability counter screen (AID 743084);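 further: cells stimulated with testosterone during compound exposure; nearly all actives have a fitted effect of over 55% in size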
- test_conditions: MCF-7 aro ERE viability, CellTiter-Fluor, 24 h; series mostly up to 70.3 µM
Results filed as inconclusive are left out. The source made the active and inactive calls. Calls come from the whole dose curve; as a rule, active = well fitted cell-killing curve with a large enough effect in the repeat runs; inconclusive = weak or mixed curves, or effect the other way; inactive = no such curve, though single readings can be large or run the other way.
Your answer must be one of the following: active, inactive

Query string: Please indicate how the test categorized CCCCCCCCCCCC(=O)OCC(C)OC(=O)CCCCC(=O)O (stereo not drawn) .
Result string: inactive

Query string: // return assay outcome for CCCCC(CC)COC(=O)CCCCC(=O)OCc1ccccc1 (stereo not drawn)
Result string: inactive

Query string: How did this test come out for "CCCCOC(=O)CO" ?
Result string: inactive

Query string: Hey, what did the test say about "[Cl][Pt-2]([Cl])([Cl])[Cl]" ?
Result string: inactive

Query string: Record request — test call for "O=C(O)c1cc(-c2ccc(F)cc2F)ccc1O"
Result string: inactive

Query string: I would be grateful if you could indicate the recorded call for "CCc1cccc(CC)c1NC(=O)CN(CC(=O)O)CC(=O)O" .
Result string: inactive

Query string: Please share the test call associated with "Cl[Si](Cl)(c1ccccc1)c1ccccc1" .
Result string: inactive

Query string: # fetch the recorded call for "COc1ccc(-c2coc3cc(O)ccc3c2=O)cc1" here
Result string: inactive

Query string: Test call, this molecule: "C=CC(=O)OCCOC(=O)C=C"
Result string: active

Query string: Dear all, I need the recorded test outcome for CCC(CC)C(C)CCOC(C)=O (stereo not drawn) , thank you.
Result string: inactive

Query string: Tell me the recorded outcome of this test for "S=C([S-])NCCNC(=S)[S-].S=C([S-])NCCNC(=S)[S-].[Mn+2].[Zn+2]" .
Result string: inactive

Query string: Record request — test call for "Clc1sc(Cl)c(Cl)c1Cl"
Result string: inactive

Query string: // return assay outcome for "CC1=Nc2ccccc2C1(C)C"
Result string: inactive

###

- measurement_description: qHTS assay for small molecule activators of the heat shock response signaling pathway - cell viability counter screen (AID 743209); further: nearly all actives have a fitted effect of over 50% in size
- test_conditions: HSE-bla HeLa viability, CellTiter-Glo luminescence, 5 h; series mostly up to 62.6 µM
Records with an inconclusive call do not appear. Activity calls are given as the source filed them. The call rests on the fitted dose curve; in most records, active means well fitted cell-killing curve with a large enough effect in the repeat runs; inconclusive means weak or mixed curves, or effect the other way; inactive means no such curve, though single readings can be large or run the other way.
Output constraint: value belongs to active, inactive

Query string: # outcome recorded in this test, key = "Nc1cc(Cl)c(O)c(Cl)c1"
Result string: inactive

Query string: GET /call?item= "COc1cc(/C=C/c2ccccc2)oc(=O)c1" returns the recorded outcome of this test.
Result string: inactive

Query string: Status in this test for "CCO[Si](OCC)(OCC)OCC" ?
Result string: inactive

Query string: What did this assay record as the result for "O=C(O)c1cc(-c2ccc(F)cc2F)ccc1O" ?
Result string: inactive

Query string: Which outcome was assigned to Cc1c(F)c(N2CCNC(C)C2)cc2c1c(=O)c(C(=O)O)cn2C1CC1 (stereo not given) in this test?
Result string: inactive

Query string: Dear colleague, could you share the recorded outcome for "CCC(COC(=O)CCS)(COC(=O)CCS)COC(=O)CCS" when you have a moment?
Result string: inactive

Query string: Check the results log: what was the call for "Cc1cc(=O)oc2cc(O)cc(O)c12" ?
Result string: inactive

Query string: Which result was noted for this compound in the test: "Oc1cc(Cl)cc(Cl)c1Cl"
Result string: inactive

Query string: So what was the verdict on "O=C1NC(=O)[C@@H]2CC=CC[C@H]12" in this test?
Result string: inactive

Query string: // param item: "C=CCn1c(=O)n(CC=C)c(=O)n(CC=C)c1=O" ; yields the recorded call
Result string: inactive

Query string: Test call, this compound: "CCC(=O)C(=O)CC"
Result string: inactive

Query string: Please state the recorded outcome for this compound: "Cc1c(C)c2c(c(C)c1OC(=O)c1cccnc1)CC[C@@](C)(CCC[C@H](C)CCC[C@H](C)CCCC(C)C)O2"
Result string: inactive

Query string: Could you check what this test reported for CCC(C)(CCC(C)C)C(=O)[O][Sn]([CH3])([CH3])[O]C(=O)C(C)(CC)CCC(C)C (stereo not given) ?
Result string: inactive

Query string: Dear all, I need the recorded test outcome for "O=C(O)c1cccc(C(F)(F)F)c1" , thank you.
Result string: inactive

Query string: Hey, what did the test say about "Cc1ccc(O)c(O)c1" ?
Result string: inactive

Query string: State the result this test recorded for "CCCCNS(=O)(=O)c1ccc(C)cc1" .
Result string: inactive

Query string: How was "O=C1CCCCCCCCCCCCCCCO1" classified in this test?
Result string: inactive

Query string: For "COC(=O)c1ccccc1OC" , what call appears in the results of this test?
Result string: inactive

Query string: Recorded test call requested for "CN(C)CCN1CCN(c2cccc(Cl)c2)C1=O"
Result string: inactive

Query string: Which outcome was entered for the compound OC1CCCc2ccccc21 (stereo not given) in this test?
Result string: inactive

Query string: Which outcome did this test record for the compound "COc1cc(S(=O)(=O)O)c(C)cc1N=Nc1c(O)ccc2cc(S(=O)(=O)O)ccc12" ?
Result string: inactive

Query string: For this compound, state the assay outcome: "O=C(/C=C/c1ccc(O)c(O)c1)O[C@@H](C(=O)O)[C@@H](OC(=O)/C=C/c1ccc(O)c(O)c1)C(=O)O"
Result string: inactive

Query string: Assay result, entry "CC1(C)[C@@H](O)CC[C@]2(C)[C@H]3C(=O)C=C4[C@@H]5C[C@@](C)(C(=O)O)CC[C@]5(C)CC[C@@]4(C)[C@]3(C)CC[C@@H]12" — outcome?
Result string: active

Query string: Please state the recorded outcome for this compound: "O=[N+]([O-])c1ccc(F)c(Cl)c1"
Result string: inactive

Query string: How did this test come out for "O=C(O)c1cc(O)c2ccccc2c1O" ?
Result string: active

Query string: // return assay outcome for "COC(C)=O"
Result string: inactive

Query string: What did this assay record as the result for "O=C1OC2(c3ccc(O)cc3Oc3cc(O)ccc32)c2ccc(N=C=S)cc21" ?
Result string: inactive

Query string: Returns: the outcome recorded for "O=C(O)Cc1ccc2c(c1)C(=O)c1ccccc1CO2" in this assay.
Result string: inactive

Query string: Short answer needed: outcome of this test for "O=C1CCc2ccc(OCCCCN3CCN(c4cccc(Cl)c4Cl)CC3)cc2N1" ?
Result string: active

Query string: Assay outcome for "CC(C)=CCC1=C(O)c2ccccc2C(=O)C1=O" : what was it?
Result string: inactive

Query string: For this compound, state the assay outcome: "Cc1ccc(O)c(N)c1"
Result string: inactive

Query string: Check the results log: what was the call for CCCCCC(C)OC(=O)COc1ccc(Cl)c2cccnc12 (stereo not given) ?
Result string: inactive

Query string: Could you please tell me the result logged for CC(C)(C)c1ccc(C(O)CCCN2CCC(C(O)(c3ccccc3)c3ccccc3)CC2)cc1 (stereo not given) in this assay?
Result string: active

Query string: Recorded test call requested for "CN1CCN(Cc2cc(-c3ccc4[nH]c(=O)oc4c3)co2)[C@@H](c2ccc(F)cc2)C1"
Result string: inactive

Query string: Dear all, I need the recorded test outcome for "CCCC(=O)OCCc1ccccc1" , thank you.
Result string: inactive

Query string: What is the recorded call for this compound in the test? "CCCCOC(=O)CO"
Result string: inactive

Query string: Dear all, I need the recorded test outcome for "C[Si](Cl)(c1ccccc1)c1ccccc1" , thank you.
Result string: inactive

Query string: GET /call?item= "C=Cc1cccc(C)c1" returns the recorded outcome of this test.
Result string: inactive

Query string: Lab log entry: "CC(C)=CCNc1ncnc2c1ncn2[C@@H]1O[C@H](CO)[C@@H](O)[C@H]1O" — outcome as called in the assay?
Result string: active

Query string: Test call, this compound: "Nc1nc(N)nc(-c2cc(Cl)ccc2Cl)n1"
Result string: inactive

Query string: Please let me know the test result on file for "CN(C)Cc1ccccc1O" .
Result string: inactive

Query string: Hello, I am checking results. What call was entered for "OCCN1CCN(CCCN2c3ccccc3Sc3ccc(C(F)(F)F)cc32)CC1" ?
Result string: inactive

Query string: What did the test return for "COc1cccc(OC)c1C(=O)O" ?
Result string: inactive

Query string: Recorded call for "CCCNCCC" ?
Result string: inactive

Query string: Which outcome was assigned to "CC1(C)CCC[C@]2(C)[C@H]3CC(=O)O[C@]3(C)CC[C@@H]12" in this test?
Result string: inactive

Query string: How did this test come out for "C=C(C)C(=O)OCCCCCCCCCC" ?
Result string: inactive

Query string: Give the logged outcome of this assay for the following compound: "O=S(=O)(O)c1ccccc1/C=C/c1ccc(-c2ccc(/C=C/c3ccccc3S(=O)(=O)O)cc2)cc1"
Result string: inactive

Query string: Called result for "CC[N+](CC)(CC)CCOC(=O)C(C1CCCC1)C1CCCC1"
Result string: inactive

Query string: For this compound, state the assay outcome: "CCCCCCCC"
Result string: inactive

Query string: Test call, this compound: "NC(=O)c1cccc([N+](=O)[O-])c1"
Result string: inactive
